Below, each entry is listed alongside its reported IC50.
- measured target: human orexin-1 receptor (Homo sapiens (Human), UniProt O43613)
- Sequence (O43613 whole entry): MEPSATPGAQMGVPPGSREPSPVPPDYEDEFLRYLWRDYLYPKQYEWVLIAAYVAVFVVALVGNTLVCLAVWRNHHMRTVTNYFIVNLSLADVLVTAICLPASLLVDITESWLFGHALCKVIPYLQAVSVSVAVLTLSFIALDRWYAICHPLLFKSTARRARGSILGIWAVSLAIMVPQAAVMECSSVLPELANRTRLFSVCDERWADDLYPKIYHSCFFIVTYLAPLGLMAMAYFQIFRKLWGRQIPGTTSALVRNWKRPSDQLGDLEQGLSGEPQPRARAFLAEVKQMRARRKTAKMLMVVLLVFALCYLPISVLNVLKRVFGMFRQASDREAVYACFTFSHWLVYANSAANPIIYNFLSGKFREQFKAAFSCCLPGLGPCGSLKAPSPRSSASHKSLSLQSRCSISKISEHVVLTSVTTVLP
- test description: Intracellular calcium measurements (FLIPR), antagonism of orexin-A response
- test parameters: CHO cells expressing human orexin-1 receptor, 3 nM orexin-A, geometric mean if determined several times, read-out: IC50 OX1
Numeric only. Scale: nM

These recorded examples may help you get a feel for the data.
record smiles: CCOc1c(F)cccc1-c1noc([C@@H]2CCN2C(=O)c2cc(C)ccc2-n2nccn2)n1
result: 134

record smiles: Cc1ccc(-n2nccn2)c(C(=O)N2CC[C@H]2c2nc(-c3cccc(F)c3C)no2)c1
result: 713

record smiles: COc1cc(C(=O)N2CC[C@H]2c2nnc(-c3ccccc3OC(F)(F)F)[nH]2)c(-n2nccn2)cc1Cl
result: 497

record smiles: COc1cc(C(=O)N2CC[C@H]2c2noc(-c3cccc(Cl)c3OC)n2)c(-n2nccn2)cc1Cl
result: 70

## Input For CN(C)c1nc(C(=O)N2CC[C@H]2c2nc(-c3ccccc3OC(F)(F)F)no2)c(-c2ccccc2)s1 , what is its reported IC50?
## Output 43

## Input Same lookup for Cc1ccc(C(=O)N2CC[C@H]2c2nnc(-c3ccccc3OC(F)(F)F)[nH]2)c(-n2nccn2)c1 , please.
## Output 866

## Input Now the same for COc1c(Cl)cccc1-c1nc([C@@H]2CCN2C(=O)c2cc(Cl)c(C)cc2-n2nccn2)no1
## Output 51

* * *

- measured target: human orexin-1 receptor (Homo sapiens (Human), UniProt O43613)
- test description: Intracellular calcium measurements (FLIPR), antagonism of orexin-A response
- test parameters: CHO cells expressing human orexin-1 receptor, 3 nM orexin-A, geometric mean if determined several times, read-out: IC50 OX1
Dear colleague, classification is by IC50, with ranges listed here: lo = under 400 nM, mid = from 400 nM up to 800 nM, hi = 800 nM and over

Example entries begin here.
record smiles: Cc1cccc(-c2sc(C)nc2C(=O)N2CC[C@H]2c2nc(-c3ccccc3OC(F)(F)F)no2)c1
measured target: human orexin-1 receptor (Homo sapiens (Human), UniProt O43613)
assigned category: lo
//
record smiles: Cc1c(Cl)cccc1-c1nc([C@@H]2CCN2C(=O)c2ccc(C(F)(F)F)cc2-n2nccn2)no1
measured target: human orexin-1 receptor (Homo sapiens (Human), UniProt O43613)
assigned category: mid

With those in mind, consider the next compound.
## Input Exam item: assign Cc1ccc(-c2sc(C)nc2C(=O)N2CC[C@H]2c2nc(-c3ccccc3OC(F)(F)F)no2)cc1 to the correct category.
## Output lo

* * *

In this section we review reported IC50 values for a set of compounds.
- measured target: human orexin-1 receptor (Homo sapiens (Human), UniProt O43613)
- test description: Intracellular calcium measurements (FLIPR), antagonism of orexin-A response
- test parameters: CHO cells expressing human orexin-1 receptor, 3 nM orexin-A, geometric mean if determined several times, read-out: IC50 OX1
# output: bare number, implied unit nM

## Input Field request: IC50 | item: Cc1cccc(-c2scnc2C(=O)N2CC[C@H]2c2nc(-c3ccccc3OC(F)(F)F)no2)c1
## Output 276

## Input Item: Cc1cccc(-c2ocnc2C(=O)N2CC[C@H]2c2nc(-c3cccc(Cl)c3C)no2)c1
## Output 437

## Input Next: COc1cc(C(=O)N2CC[C@H]2c2noc(-c3cccc(F)c3C)n2)c(-n2nccn2)cc1Cl
## Output 306

## Input Try Cc1nc(C(=O)N2CC[C@H]2c2nc(-c3ccccc3OC(F)(F)F)no2)c(-c2ccccc2F)s1 next.
## Output 458
